Target: PA2652-LBD (Pseudomonas aeruginosa)
Construct: The DNA fragment encoding the LBD of PA2652 (Lys^34–Thr^205) was amplified; His-tag (vector-encoded by pET28b(+) via NdeI site); made in house; host or cells: Escherichia coli BL21 (DE3)
Assay type: binding, Pseudomonas aeruginosa PAO1
Study Conditions: DSF screening as described in text; 2 °C threshold for significant hits
Reported Property: Tm increases

Reported Tm increases for O=C(O)CC(Br)C(=O)O (racemic) [D,L-bromosuccinic acid] was more than 2 °C

Reported Tm increases for CC(O)(CC(=O)O)C(=O)O (racemic) [D,L-citramalic acid] was hits

Reported Tm increases for C/C(=C/C(=O)O)C(=O)O [citraconic acid] was hits

Reported Tm increases for O=C(O)C[C@H](O)C(=O)O [L-malic acid] was more than 2 °C

---

Target: PA2652-LBD (Pseudomonas aeruginosa, UniProt Q9I0I6)
Construct: The DNA fragment encoding the LBD of PA2652 (Lys^34–Thr^205) was amplified; His-tag (vector-encoded by pET28b(+) via NdeI site); made in house; host or cells: Escherichia coli BL21 (DE3)
Sequence (Q9I0I6 34-205): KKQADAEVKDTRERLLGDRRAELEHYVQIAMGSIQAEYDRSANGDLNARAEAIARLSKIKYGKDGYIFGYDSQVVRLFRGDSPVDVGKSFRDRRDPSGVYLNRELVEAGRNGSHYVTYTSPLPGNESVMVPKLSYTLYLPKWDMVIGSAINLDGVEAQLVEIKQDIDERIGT
Protocol Summary: biochemical
Type: binding, Pseudomonas aeruginosa PAO1
Study Conditions: ITC
Reported Property: Binding to PA2652-LBD in ITC (in words)

Reported Binding to PA2652-LBD in ITC (in words) for O=C(O)/C=C/C(=O)O [Fumaric acid] was No binding

Reported Binding to PA2652-LBD in ITC (in words) for O=C(O)[C@H](O)[C@@H](O)C(=O)O [L-tartaric acid] was No binding

Reported Binding to PA2652-LBD in ITC (in words) for C[C@H](CC(=O)O)C(=O)O [D-methylsuccinic acid] was no binding was observed

Reported Binding to PA2652-LBD in ITC (in words) for C[C@@H](O)[C@H](N)C(=O)O [L-threonine] was No binding

Reported Binding to PA2652-LBD in ITC (in words) for C[C@@](O)(CC(=O)O)C(=O)O [D-citramalic acid] was no binding was observed

***
Reported Binding to PA2652-LBD in ITC (in words) for O=C(O)CCC(=O)O [Succinic acid] was No binding

Reported Binding to PA2652-LBD in ITC (in words) for O=C(O)CC(=O)C(=O)O [Oxaloacetic acid] was No binding

Provenance of the data: paper PMC5795001
